Molecular target: murine E^d MHC class II allele (Mus musculus, UniProt P01904+P01915)
Sequence (P01904 26-255): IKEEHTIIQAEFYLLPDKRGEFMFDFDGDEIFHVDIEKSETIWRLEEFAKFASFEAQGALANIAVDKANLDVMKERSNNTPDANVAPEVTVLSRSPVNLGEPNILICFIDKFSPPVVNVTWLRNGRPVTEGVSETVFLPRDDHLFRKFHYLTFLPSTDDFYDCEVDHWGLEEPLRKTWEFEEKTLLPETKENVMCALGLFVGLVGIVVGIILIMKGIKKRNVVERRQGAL
Sequence (P01915 27-264 limits assumed): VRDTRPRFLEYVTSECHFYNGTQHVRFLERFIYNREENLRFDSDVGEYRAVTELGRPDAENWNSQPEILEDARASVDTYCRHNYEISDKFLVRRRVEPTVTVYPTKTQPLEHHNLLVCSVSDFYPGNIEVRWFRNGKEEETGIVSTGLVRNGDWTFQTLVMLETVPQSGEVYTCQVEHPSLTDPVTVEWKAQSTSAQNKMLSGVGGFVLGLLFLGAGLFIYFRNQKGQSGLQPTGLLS
Assay: processed antigen assay, E^d allele (APC pulsed with native HEL)
Type: cell-based
Parameters: The A20 and CH27 B cell lymphoma lines express H-2^d and H-2^k alleles, respectively; endogenous in cells; host or cells: A20 B cell lymphoma (mitomycin C-treated or paraformaldehyde-fixed)
Conditions: Table 29; native HEL prepulse 5 μM; AE peptide 64 μM; supernatant dilution 1:8 (second value)
For each entry below, report its T cell response relative to baseline (None = 1.0), 5 μM HEL E^d, second value value.
Give bare numbers.

Field: example entries. Status: answers known.
- substance: "Ac-LRMK Y PK-NH2 (Ac-LRMKYPK-NH2; not fully specified; printed as Ac-LRMK Y PK-NH2) [AE235]"
  measured: 0.38
- substance: "Ac-LRMK F PK-NH2 (Ac-LRMKFPK-NH2) [AE234]"
  measured: 0.62

# input for lookup
Response field T cell response relative to baseline (None = 1.0), 5 μM HEL E^d, second value (murine E^d MHC class II allele (Mus musculus, UniProt P01904+P01915)) for item Ac-LRMK Q PK-NH2 (Ac-LRMKQPK-NH2) [AE233] : 0.36

----------
Please go through the items and note down their Times Baseline Response, E^k.
Test system: murine E^k MHC class II allele
Assay: simultaneous assay, E^k allele (CH27 APC, TPc9.1 T hybridoma, THMCC82-103 or PGCC81-104)
Assay type: cell-based
Settings: Table 2; AE peptide 64 μM; 0.05 μM PGCC81-104; supernatant 1:2
Numbers only.

Worked set:
- substance: "Ac-LQLDSLRMKLPKSAK-NH2 [AE151]"
  Times Baseline Response, E^k: 0.6
- substance: "Ac-LRMKLPKSAK-NH2 [AE110]"
  Times Baseline Response, E^k: 19.1
- substance: "Ac-LDSLRMKLPKSAK-NH2 [AE153]"
  Times Baseline Response, E^k: 1.4

Hey, can you go through the list below and give me Times Baseline Response, E^k for every item?
1. Ac-QLDSLRMKLPKSAK-NH2 [AE152]
2. Ac-DSLRMKLPKSAK-NH2 [AE154]

Result:
1. 0.4
2. 2.2

Hi, could you look up Times Baseline Response, E^k for each item in my list?
1. Ac-YRMKLPKSAK-NH2 [AE109]
2. Ac-SLRMKLPKSAK-NH2 [AE155]
3. Ac-NLQLDSLRMKLPKSAK-NH2 [AE150]

Result:
43.7
8.4
0.8

Attribution: patent US6835382B2
